# Measured on: Adrenergic receptor alpha-2 (Rattus norvegicus, UniProt P22086+P19328+P22909)
# Procedure details: Alpha-2 adrenergic receptor antagonistic activity in rat vas deferens vs clonidine
# Format: functional, tissue-based

[
  {
    "Compound": "Cn1c(C2=NCCN2)cc2ccccc21",
    "Inequality symbol": ">",
    "pA2": 6
  },
  {
    "Compound": "CCOCCN1c2ccccc2CC1C1=NCCN1 (stereo not drawn)",
    "Inequality symbol": "=",
    "pA2": 7.81
  },
  {
    "Compound": "c1ccc2c(c1)CC(C1=NCCN1)N2 (stereo not drawn)",
    "Inequality symbol": "=",
    "pA2": 8.16
  }
]
